Reference source: patent EP4806904A1

System: primary neural stem cells (NSCs)
test.method.notes: Differentiation of primary neural stem cells, βIII-tubulin fluorescence and Neurite Outgrowth Assay
Assay type: cell-based, SD rats
study.conditions: 100 µg/mL, 4 days, vs blank control group, in words
From the text: […]
Where a SMILES comes first, the peptide text is derived from it. [ ]: non-standard residue; d: D form.
property.measured: mean fluorescence intensity of the neuronal marker protein βIII-tubulin

Guide cases for mean fluorescence intensity of the neuronal marker protein βIII-tubulin, answers given:
CC(C)C[C@H](NC(=O)[C@H](C)N)C(=O)N1CCC[C@H]1C(=O)N[C@@H](C)C(=O)O [Compound 35, H-Ala-Leu-Pro-Ala-OH] (H-ALPA-OH)
significant increase
CC(=O)N[C@@H](C)C(=O)N[C@@H](CC(C)C)C(=O)N1CCC[C@H]1C(=O)N[C@H](C)C(=O)N1CCC[C@H]1C(=O)NCC(=O)N[C@H](C(=O)N[C@@H](CC(C)C)C(N)=O)[C@@H](C)O [Compound 42, Ac-Ala-Leu-Pro-D-Ala-Pro-Gly-Thr-Leu-NH2] (Ac-ALP[dA]PGTL-NH2)
significant increase
CC(C)C[C@H](NC(=O)[C@@H](NC(=O)CN)[C@@H](C)O)C(=O)O [Compound 38, H-Gly-Thr-Leu-OH] (H-Gly-Thr-Leu-OH)
tendency to enhance
CC(C)C[C@H](NC(=O)[C@@H](NC(=O)CNC(=O)[C@@H]1CCCN1C(=O)[C@H](C)NC(=O)[C@@H]1CCCN1C(=O)[C@@H](CC(C)C)NC(=O)[C@H](C)N)[C@@H](C)O)C(=O)O [Compound 3, H-Ala-D-Leu-Pro-Ala-Pro-Gly-Thr-Leu-OH] (H-A[dL]PAPGTL-OH)
significant increase

Which mean fluorescence intensity of the neuronal marker protein βIII-tubulin is reported for this compound? CC(C)C[C@H](N)C(=O)N1CCC[C@H]1C(=O)N[C@@H](C)C(=O)N1CCC[C@H]1C(=O)O [Compound 31, H-Leu-Pro-Ala-Pro-OH] (H-LPAP-OH)
tendency to enhance
